System name: Peptide 1: Biotin-…-[Tyr(PC)]-acid
Sequence (peptide, as listed by the source): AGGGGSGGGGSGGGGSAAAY
Test method notes: scFv ELISA
Readout name: OD450 (OD450)

1) PcOxP_DB04_A09 (scFv, V domains shown, scFv in periplasmic extract) VH: EVQLLESGGGLVQPGGSLRLSCAASGFTFSDYYMEWVRQAPGKGLEWVAASRNKWNDYTTEYADSVKGRFTISRDNSKNTLYLQMNSLRAEDTAVYYCARDYYGSSYWYFDVWGQGTLVTVSS VL: DIQMTQSPSSLSASVGDRVTITCTAEESLYSSKHKVHYLAWYQQKPGKAPKLLIYGASNLYSGVPSRFSGSGSGTDFTLTISSLQPEDFATYYCAQFYSYPLTFGGGTKVEIK | 1.16
2) PcOxP_DB04_A04 (scFv, V domains shown, scFv in periplasmic extract) VH: EVQLLESGGGLVQPGGSLRLSCAASGFTFSDFYMEWVRQAPGKGLEWVAASRNKWNDYTTEYADSVKGRFTISRDNSKNTLYLQMNSLRAEDTAVYYCARDYYGSSYWYFDVWGQGTLVTVSS VL: DIVMTQSPDSLAVSLGERATINCTASQSVYSSKNKKHYLAWYQQKPGQPPKLLIYGASNRYIGVPDRFSGSGSGTDFTLTISSLQAEDVAVYYCAQFYRYPLTFGGGTKVEIK | 1.09
